- system: UniProt:O43613
- method notes: FLIPR calcium assay, orexin receptor antagonistic activity, CHO cells expressing the human orexin-1 receptor
- assay context: 3 nM orexin-A as agonist, some values geometric mean of n = 2 or 3, read-out: OX1 IC50
pIC50: −log10 of the molar value.
experimental readout: pIC50

Some solved cases for reference:
May I ask what pIC50 has been recorded for `Cc1cccc(-n2nnnc2SCC(=O)Nc2ccnn2-c2ccc(Oc3ccccc3)cc2)c1C` ?
7.07

Quick one: pIC50 of CCC(C)Cn1nccc1NC(=O)CSc1nnnn1-c1cccc(C)c1C (stereo not drawn) ?
6.53

Requested read-out: pIC50. Entry: `COc1ccc(-n2nccc2NC(=O)CSc2nnnn2-c2cccc(C)c2C)cn1`
7.33

I'd like to know its pIC50. The compound in question is `COc1ccc(-n2nccc2NC(=O)CCc2nnnn2-c2c(C)cc(C)cc2C)cc1`
6.10

So what's the measured pIC50 for this one? `Cc1ccccc1Cn1nccc1NC(=O)CSc1nnnn1-c1cccc(C)c1C`
7.32

I. COc1ccc(Cn2nccc2NC(=O)CSc2nnnn2-c2cc(C)ccc2C)cc1
II. COc1ccc(Cn2nccc2NC(=O)CSc2nnnn2-c2cccc(C)c2C)cc1
III. Cc1cccc(-n2nnnc2SCC(=O)Nc2ccnn2CCCc2ccc(OC(F)(F)F)c(F)c2)c1C
IV. Cc1cccc(-n2nnnc2SCC(=O)Nc2ccnn2CC2CC2)c1C
Please give the order of these compounds when sorted by pIC50, largest value leading. Present the labels in the sequence the task asks for.
I, II, IV, III
(I: 7.96, II: 7.49, IV: 6.44, III: 5.74)

----------
- system: human orexin-1 receptor (Homo sapiens, UniProt O43613)
- Sequence (O43613 whole entry): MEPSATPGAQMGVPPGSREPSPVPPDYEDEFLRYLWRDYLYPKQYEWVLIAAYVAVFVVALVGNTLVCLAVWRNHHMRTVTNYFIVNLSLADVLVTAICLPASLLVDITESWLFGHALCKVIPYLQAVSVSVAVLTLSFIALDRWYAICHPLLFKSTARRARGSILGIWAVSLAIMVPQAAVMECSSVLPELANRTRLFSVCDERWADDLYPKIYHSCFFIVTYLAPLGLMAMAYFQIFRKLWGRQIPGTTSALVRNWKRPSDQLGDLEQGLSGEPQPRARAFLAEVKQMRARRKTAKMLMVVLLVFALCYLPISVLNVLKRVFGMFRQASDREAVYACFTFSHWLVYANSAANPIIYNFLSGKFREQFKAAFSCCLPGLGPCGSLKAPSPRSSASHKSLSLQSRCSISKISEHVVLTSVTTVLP
- method notes: FLIPR calcium assay, orexin receptor antagonistic activity, CHO cells expressing the human orexin-1 receptor
- assay context: 3 nM orexin-A as agonist, some values geometric mean of n = 2 or 3, read-out: OX1 IC50
experimental readout: IC50 (nM)

Worked cases, IC50 given:
Which IC50 reading was recorded for the compound `COc1ccc(-n2nnnc2SCC(=O)Nc2ccnn2Cc2ccc3c(c2)OCO3)c(OC)c1` ?
3440

Tell me the measured IC50 of `COc1ccc(Cn2nccc2NC(=O)CCc2nnnn2-c2cccc3ccccc23)cc1` , please.
25

I. COc1ccc(-n2nccc2NC(=O)CSc2nnnn2-c2c(Cl)cccc2Cl)cc1
II. Cc1cc(NC(=O)CSc2nnnn2-c2cccc(C)c2C)n(-c2ccccc2)n1
Which numeric IC50 is bigger, that of I or that of II ? # respond with the chosen item's label
II
(II: 7250 nM, I: 63 nM)

----------
- system: human orexin-2 receptor (Homo sapiens, UniProt O43614)
- method notes: FLIPR calcium assay, orexin receptor antagonistic activity, CHO cells expressing the human orexin-2 receptor
- assay context: 3 nM orexin-A as agonist, some values geometric mean of n = 2 or 3, read-out: OX2 IC50
pIC50: −log10 of the molar value.
experimental readout: pIC50

Sample answers from the record:
Query the reported pIC50 for human orexin-2 receptor (Homo sapiens, UniProt O43614); item: `COc1ccc(-n2nccc2NC(=O)CCc2nnnn2-c2c(C)cc(C)cc2C)cc1`
6.28

What pIC50 appears in the records for this compound with human orexin-2 receptor (Homo sapiens, UniProt O43614)? `COc1ccc(Cn2nccc2NC(=O)CSc2nnnn2-c2cccc(C)c2C)cc1C`
7.60

// map `Cc1cccc(-n2nnnc2SCC(=O)Nc2ccnn2CC2CC2)c1C` to recorded pIC50 (system: human orexin-2 receptor (Homo sapiens, UniProt O43614))
6.78

P. COc1ccc(-n2nccc2NC(=O)CSc2nnnn2-c2c(Cl)cccc2Cl)cc1
Q. Cc1ccccc1Cn1nccc1NC(=O)CSc1nnnn1-c1cccc(C)c1C
R. COc1ccc(-n2nnnc2SCC(=O)Nc2ccnn2Cc2ccc3c(c2)OCO3)c(OC)c1
S. CCC(C)Cn1nccc1NC(=O)CSc1nnnn1-c1cccc(C)c1C (centres unmarked)
T. COc1ccc(Cn2nccc2NC(=O)CSc2nnnn2-c2cc(C)ccc2C)cc1
Your job: order these 5 records by pIC50, ascending. Rank the items, then write their labels in that order.
R, S, Q, P, T
(R: 5.74, S: 6.21, Q: 6.94, P: 7.49, T: 8.22)

----------
- system: human orexin-1 receptor (Homo sapiens)
- method notes: FLIPR calcium assay, orexin receptor antagonistic activity, CHO cells expressing the human orexin-1 receptor
- assay context: 3 nM orexin-A as agonist, some values geometric mean of n = 2 or 3, read-out: OX1 IC50
pIC50: −log10 of the molar value.
experimental readout: pIC50

Which pIC50 is listed for `Cc1ccc(C)c(-n2nnnc2SCC(=O)Nc2ccnn2CCc2ccccc2)c1` ?
7.36

State the recorded pIC50 for this entry: `COc1ccc(Cn2nccc2NC(=O)CSc2nnnn2-c2cccc(C)c2C)cc1OC`
7.21

Would you kindly share the measured pIC50 for `COc1ccc(Cn2nccc2NC(=O)CSc2nnnn2-c2cccc(C)c2C)cc1C` ?
7.38

----------
- system: human orexin-2 receptor (Homo sapiens, UniProt O43614)
- Sequence (O43614 1-444): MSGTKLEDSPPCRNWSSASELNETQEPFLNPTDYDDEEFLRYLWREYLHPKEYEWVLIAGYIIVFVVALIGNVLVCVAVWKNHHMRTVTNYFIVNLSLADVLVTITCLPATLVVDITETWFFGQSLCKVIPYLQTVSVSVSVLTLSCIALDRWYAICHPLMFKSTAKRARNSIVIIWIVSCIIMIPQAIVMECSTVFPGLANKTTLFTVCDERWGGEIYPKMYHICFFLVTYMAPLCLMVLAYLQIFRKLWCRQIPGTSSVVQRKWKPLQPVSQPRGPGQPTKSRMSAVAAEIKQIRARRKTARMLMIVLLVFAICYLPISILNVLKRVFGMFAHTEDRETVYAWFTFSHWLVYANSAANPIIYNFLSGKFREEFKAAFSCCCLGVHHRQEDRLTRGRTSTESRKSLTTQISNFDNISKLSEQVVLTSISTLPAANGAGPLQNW
- method notes: FLIPR calcium assay, orexin receptor antagonistic activity, CHO cells expressing the human orexin-2 receptor
- assay context: 3 nM orexin-A as agonist, some values geometric mean of n = 2 or 3, read-out: OX2 IC50
experimental readout: IC50 (µM)

Solved entries:
Given `Cc1cccc(-n2nnnc2SCC(=O)Nc2ccnn2CCCc2ccc(OC(F)(F)F)c(F)c2)c1C` , state its recorded IC50.
0.146

Reported IC50 for `Cc1cc(NC(=O)CSc2nnnn2-c2cccc(C)c2C)n(-c2ccccc2)n1` : what is it?
0.654

Given the molecule `COc1ccc(-n2nccc2NC(=O)CSc2nnnn2-c2cccc(C)c2C)cn1` , what is its reported IC50?
8.3

P. Cc1cccc(-n2nnnc2SCC(=O)Nc2ccnn2-c2ccc(Oc3ccccc3)cc2)c1C
Q. COc1ccc(Cn2nccc2NC(=O)CSc2nnnn2-c2cccc(C)c2C)cc1OC
Between P and Q , which one has the lower reported IC50 value? // return label of chosen record
P

I. COc1ccc(Cn2nccc2NC(=O)CCc2nnnn2-c2cccc3ccccc23)cc1
II. COc1ccc(Cn2nccc2NC(=O)CSc2nnnn2-c2cccc(C)c2C)cc1
Would you kindly point out which of I and II has the smaller IC50 figure? The response must carry the label of the picked entry.
II
(II: 0.005 µM, I: 0.041 µM)
